- System: HCC-2998 colon
- measurement-notes: NCI tumour cell line growth inhibition, 48 h
result-type: TGI

Noted for COC(=O)C(C(=O)C(=O)Nc1nc(=S)[nH][nH]1)c1csc(N)n1 (centres undefined) : its TGI reads > 100 µM

Noted for CC(C)C(O)(C(=O)OCN1C(=O)C2C3C=CC(C2C1=O)C1C2C(=O)N(COC(=O)C(O)(C(C)C)C(C)O)C(=O)C2C31)C(C)O (centres undefined) : its TGI reads > 100 µM

Noted for COC(=O)c1c(O)c2c(c3c1OC(C)(C)CC3)OC(C)(C)CC2 : its TGI reads 31.2 µM

Noted for COC(=O)C1=C(OC(=O)/C(=C/c2ccccc2)c2ccccc2)C(C(=O)OC)[C@@]2(O)[C@@H](C(=O)OC)[C@H](C)C[C@@H]1[C@@H]2C(=O)OC (some centres undefined) : its TGI reads > 100 µM

###

Quick record: GI50, HOP-92 NSCLC.

Recorded GI50, per entry:
Cc1ccc(-c2c3c(nn2-c2ccc(S(=O)(=O)NC(=O)Nc4ccccc4)cc2)-c2ccccc2C3)cc1
18100 nM
Cc1nc2ccccn2c1NC(=O)NNC(=S)Nc1ccc(Cl)cc1
> 100000 nM
C=CC(=O)N1CC2(CCC(n3nc(-c4ccc(Oc5ccccc5)cc4)c4c(N)ncnc43)CC2)C1
< 14 nM
Cc1cc2nc3c4cc(C=O)ccc4n(CCN(C)C)c3nc2cc1C
1490 nM

Noted for C/C(Cc1ccc(Cl)cc1)=C(\c1ccc(OCCN2CCCCCC2)cc1)c1ccc(OC(=O)c2ccccc2)cc1 : its GI50 reads 1100 nM

###

Where a SMILES comes first, the peptide text is derived from it. [ ]: non-standard residue; d: D form. The star is where a group is joined. Nle = CCCC[C@H](N)C(=O)O; Cbz = O=C(OCc1ccccc1)*
Quick record: GI50, NCI-H460 lung.

Recorded GI50, per entry:
CC(=O)N1CCN([C@H]2CCC[C@@H](NC(=O)c3cc4c(F)ccc(C)c4[nH]3)C2)CC1
18.3 µM
CCCCCCC[CH2][Sn]([Cl])([Cl])[CH2]CCCCCCC
13.2 µM
O=C(O)CN1CCN(CC(=O)O)CCN(CC(=O)O)CC1
4560 µM
C=CC(=O)N1CC2(CCC(n3nc(-c4ccc(Oc5ccccc5)cc4)c4c(N)ncnc43)CC2)C1
3.43 µM
NC1CCCCC1N.O=NN1CCCCCC1(P(=O)([O-])[O-])P(=O)([O-])[O-].[Na+].[Pt+2]
> 100 µM
c1ccc(N2CCN(CN3CCN(c4ccccc4)C3)C2)cc1
> 100 µM
COC(=O)C(=Cc1ccccc1[N+](=O)[O-])C(=O)OC
3.41 µM
CCCC[C@@H](C=O)NC(=O)[C@H](CC(C)C)NC(=O)[C@H](CC(C)C)NC(=O)OCc1ccccc1 (Cbz-Leu-Leu-[Nle]-aldehyde)
1.57 µM

Noted for C=C1C(=O)c2sccc2C(c2ccc(OC)c(OC)c2)C1COC(C)=O (stereo unspecified) : its GI50 reads 3.72 µM

Noted for O=C(Nc1ccc(OCc2nnc(-c3ccc(Cl)cc3)o2)c(F)c1)Nc1ccc(Cl)c(Cl)c1 : its GI50 reads 3.9 µM

Noted for Cc1cc2nc3c4cc(C=O)ccc4n(CCN(C)C)c3nc2cc1C : its GI50 reads 1.19 µM

###

Each entry below carries its recorded TGI.
- Tested on: OVCAR-5 ovarian
- measurement-notes: NCI tumour cell line growth inhibition, 48 h

Recorded TGI, per entry:
CC(C)C(O)(C(=O)OCN1C(=O)C2C3C=CC(C2C1=O)C1C2C(=O)N(COC(=O)C(O)(C(C)C)C(C)O)C(=O)C2C31)C(C)O (stereo not drawn)
> 100 µM
CCc1cccc(CC)c1NC(=O)C(=O)Cc1nc2ccccc2o1
> 100 µM
CC(=O)Oc1ccc(/C=C/C(=O)NCC(NC(=O)/C=C/c2ccc(OC(C)=O)c(OC(C)=O)c2)C(=O)O)cc1OC(C)=O (stereo not drawn)
> 100 µM

Noted for CC1(C)C2CCC1(C)[C@H](O)[C@H]2Nc1cc(C(F)(F)F)cc(C(F)(F)F)c1 (stereo partly drawn) : its TGI reads 21.1 µM

Noted for O=C(CSc1nnc(Cc2ccccc2)o1)Nc1ccc(Cl)cc1Cl : its TGI reads > 100 µM

Noted for C=C1CC(OC)(C(OC)C(=O)N(C)[C@H]2OCO[C@H]3C2O[C@H](C[C@@H](COC)OC)C(C)(C)C3OC)O[C@H](C)[C@@H]1C (stereo partly drawn) : its TGI reads 69.2 µM

Noted for Cc1cc(CN2CCCCC2)c(O)c(CN2CCCCC2)c1 : its TGI reads > 100 µM

Noted for Cc1ccc(N=Nc2c(-c3ccccc3)nn(C(=O)CC(=O)Nc3ccc(Cl)cc3)c2-c2ccccc2)cc1 : its TGI reads > 100 µM

###

- Tested on: MDA-N
- measurement-notes: NCI tumour cell line growth inhibition, 48 h
result-type: TGI (µM)
Answer in µM, number only, no unit symbol.

Recorded TGI, per entry:
Cc1c(C)c(S(=O)(=O)N(CCCCCCN)OCCCN)c(C)c2c1OC(C)(C)CC2
30.9
C=C1CCC(O)C/C1=C/C=C1\CCCC2(C)C1CCC2C(C)CCCC(C)C (centres undefined)
34.3
COc1ccc(/C=C2/SC(c3ccccc3)N(NC(=O)CCCCCCCCC(=O)NN3C(=O)/C(=C\c4ccc(OC)c(OC)c4)SC3c3ccccc3)C2=O)cc1OC (centres undefined)
76.2

Kindly review the next molecule as well.
Noted for CC(=O)c1c(SCCN2CCCCCC2)n(-c2ccccc2)c(=S)n(-c2ccccc2)c1=O : its TGI reads 20.3

###

- System: MDA-N
- measurement-notes: NCI tumour cell line growth inhibition, 48 h
Each entry below carries its recorded TGI.

CCOP(=O)(OCC)OC1c2[nH]ccc2-c2cc(C(=O)OC)[nH]c2C1OC (stereo unspecified)
> 100 µM
O=C(N/N=C\c1c(O)ccc2ccccc12)c1ccncc1
> 25 µM
COc1ccc(-n2sc3ncc(C)cc3c2=O)cc1
31.8 µM
Cc1c2ccccc2c(C)n2c1nc1cc3ccccc3cc12
2.89 µM

Noted for CCCCC1C=Cn2c(=O)oc3c(OC(C)C)c(OC(C)C)c(O)c1c32 (stereo unspecified) : its TGI reads 55.5 µM

Noted for COC(=O)C1SC(N(C)c2ccccc2)=NC12c1ccccc1Nc1ccccc12 (stereo unspecified) : its TGI reads 57 µM

###

- System: SK-OV-3 ovarian
- measurement-notes: NCI tumour cell line growth inhibition, 48 h
Where a SMILES comes first, the peptide text is derived from it. [ ]: non-standard residue; d: D form. The star is where a group is joined. Bn2Val = CC(C)[C@@H](C(=O)*)N(Cc1ccccc1)Cc1ccccc1; NH(4-F-benzyl) = Fc1ccc(CN*)cc1; NMeV = CN[C@H](C(=O)O)C(C)C; Nle = CCCC[C@H](N)C(=O)O; dNMeA = CN[C@H](C)C(=O)O; Cbz = O=C(OCc1ccccc1)*
Each entry below carries its recorded TGI.

CCOC(=O)Nn1cnnc1C
> 100 µM
C[C@]12CC[C@H](O)CC1=CC[C@@H]1C2CC[C@]2(C)NC(=O)C(C#N)CC12 (some centres not stated)
> 100 µM
CN(C)c1nc(N(C)C)sc(=O)n1
> 100 µM

Noted for CC(C)OC(=O)Nc1ccc(-c2nc(-c3cccc(OCCN4CCOCC4)c3)c(-c3ccnc(Br)c3)[nH]2)cc1 : its TGI reads 5.8 µM

Noted for O=C(CC(=O)Nc1ccc(C(=O)O)cc1)Nc1ccc(C(=O)O)cc1 : its TGI reads > 100 µM

Noted for N#CC1=C(Cl)NC(Cl)=C(C#N)C1c1ccc(Cl)cc1 : its TGI reads 31.7 µM

Noted for O=C1OC(c2cccc(C(F)(F)F)c2)(c2cccc(C(F)(F)F)c2)c2ccc3ccccc3c21 : its TGI reads > 100 µM

Noted for COC12COC(=O)C1C(c1ccc3c(c1)OCO3)c1cc3c(cc1O2)OCO3 (configuration not stated) : its TGI reads > 75.8 µM

Noted for CC(C)[C@H](NC(=O)[C@H](C(C)C)N(Cc1ccccc1)Cc1ccccc1)C(=O)N(C)[C@H](C(=O)N1CCC[C@H]1C(=O)N(C)[C@H](C)C(=O)NCc1ccc(F)cc1)C(C)C (Bn2Val-V[NMeV]P[dNMeA]-{NH(4-F-benzyl)}) : its TGI reads > 100 µM

Noted for O=c1nc2n(c3nsnc13)CCO2 : its TGI reads > 100 µM

Noted for CCCC[C@@H](C=O)NC(=O)[C@H](CC(C)C)NC(=O)[C@H](CC(C)C)NC(=O)OCc1ccccc1 (Cbz-Leu-Leu-[Nle]-aldehyde) : its TGI reads > 71.5 µM

###

Each entry below carries its recorded log10(TGI).
- Test system: M14 melanoma
- measurement-notes: NCI tumour cell line growth inhibition, 48 h
Lab note - TGI converted to log10 from values in µM.

Recorded log10(TGI), per entry:
COC(=O)c1ccc2[nH]c(O)c(C(=Nc3ccc(N(C)C(=O)CN4CCN(C)CC4)cc3)c3ccc(OC)cc3)c2c1
0.36
C=C(C(=O)OC1C(CO)OC(OCC2CC[C@@H]3C[C@]4(OC(=O)C3=C)C(C)=CC(=O)C24)C(O)C1O)[C@@H]1CCC(CO)C2C(=O)C=C(C)[C@@]2(O)C1 (stereo not given in full)
0.68
COC(=O)c1c(O)c2c(c3c1OC(C)(C)CC3)OC(C)(C)CC2
1.61

Measured log10(TGI) (M14 melanoma), entry CC[C@H](Nc1cc(C)nc(N)n1)c1nc2cccc(NCc3ccc(C(=O)NO)cc3)c2c(=O)n1-c1ccccc1 : 0.59

Measured log10(TGI) (M14 melanoma), entry C[C@]12CC[C@@H]3c4ccc(O)cc4CC[C@H]3[C@@H]1CC[C@@H]2NS(=O)(=O)c1cccc(OC(F)(F)F)c1 : 0.69
